- Tested on: 379773-124-R-J2-PDC spheroid viability
- ASSAY_REMARKS: Anticancer human tumor 379773-124-R-J2-PDC patient-derived endometrial carcinoma cell line growth inhibition [POLQ]
- MEASUREMENT_PARAMETERS: second compound 0.1 µM; first compound 0.316 µM; active compounds read low; spheroids with HUVEC and MSC
Entries and their viability, T/C

# MOLECULE, TARGET_ENTITY, viability, T/C [%]
data = [
    ("CC1COCCN1c1cc(-c2ccnn2C)c2ccnc(-c3ccn[nH]3)c2n1 (stereo not given) + COC1C(OC(N)=O)C(O)C(Oc2ccc3c(O)c(NC(=O)c4ccc(O)c(CC=C(C)C)c4)c(=O)oc3c2C)OC1(C)C", "379773-124-R-J2-PDC spheroid viability", 9.78),
    ("CCCS(=O)(=O)Nc1ccc(F)c(C(=O)c2c[nH]c3ncc(-c4ccc(Cl)cc4)cc23)c1F + Cc1cccc(N(C)C(=O)C2C(O)CCN2c2nc(C)cc(C(F)(F)F)c2C#N)c1", "379773-124-R-J2-PDC spheroid viability", 95.2),
    ("CCc1cc2c(N3CCc4c(cc(Cn5ccnc5)cc4-c4cn(C)nc4C(F)(F)F)C3=O)ccnc2c(OC)n1 + COC1C(OC(N)=O)C(O)C(Oc2ccc3c(O)c(NC(=O)c4ccc(O)c(CC=C(C)C)c4)c(=O)oc3c2C)OC1(C)C", "379773-124-R-J2-PDC spheroid viability", 59.7),
    ("COc1cc(C2c3cc4c(cc3C(OC3OC5COC(C)OC5C(O)C3O)C3COC(=O)C23)OCO4)cc(OC)c1O (stereo not given) + Cc1cccc(N(C)C(=O)C2C(O)CCN2c2nc(C)cc(C(F)(F)F)c2C#N)c1", "379773-124-R-J2-PDC spheroid viability", 83.8),
    ("C#Cc1c(F)ccc2cc(O)cc(-c3ncc4c(N5CC6CCC(C5)N6)nc(OCC56CCCN5CC(F)C6)nc4c3F)c12 (stereo not given) + COC1C(OC(N)=O)C(O)C(Oc2ccc3c(O)c(NC(=O)c4ccc(O)c(CC=C(C)C)c4)c(=O)oc3c2C)OC1(C)C", "379773-124-R-J2-PDC spheroid viability", 92.1),
]

---

- System: 379773-124-R-J2-PDC spheroid viability
- ASSAY_REMARKS: Anticancer human tumor 379773-124-R-J2-PDC cell line growth inhibition [POLQ];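 also: spheroids exposed to drugs for seven days before readout; percent viability relative to DMSO vehicle control taken as 100%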
- MEASUREMENT_PARAMETERS: second compound 0.0316 µM; first compound 0.1 µM; active compounds read low; spheroids with HUVEC and MSC

# COMPOUND, viability, T/C
data = [
    ("CC1COCCN1c1cc(-c2ccnn2C)c2ccnc(-c3ccn[nH]3)c2n1 (stereo not given) + COC1C(OC(N)=O)C(O)C(Oc2ccc3c(O)c(NC(=O)c4ccc(O)c(CC=C(C)C)c4)c(=O)oc3c2C)OC1(C)C", "42.4%"),
    ("CCc1cc2c(N3CCc4c(cc(Cn5ccnc5)cc4-c4cn(C)nc4C(F)(F)F)C3=O)cc(C)nc2c(OC)n1 + COC1C(OC(N)=O)C(O)C(Oc2ccc3c(O)c(NC(=O)c4ccc(O)c(CC=C(C)C)c4)c(=O)oc3c2C)OC1(C)C", "63.2%"),
    ("CC[C@@]1(O)C(=O)OCc2c1cc1n(c2=O)Cc2cc3c(CN(C)C)c(O)ccc3nc2-1 + COC1C(OC(N)=O)C(O)C(Oc2ccc3c(O)c(NC(=O)c4ccc(O)c(CC=C(C)C)c4)c(=O)oc3c2C)OC1(C)C", "10.9%"),
    ("CC1COCCN1c1cc(C2(S(C)(=N)=O)CC2)nc(-c2ccnc3[nH]ccc23)n1 (stereo not given) + Nc1ccc(C#CCN(C(=O)Cc2ncc(C(F)(F)F)cc2C(F)(F)F)c2ccc(F)cc2)nn1", "90.3%"),
    ("C=CC(=O)N1CCN(c2nc(=O)n(-c3c(C)ccnc3C(C)C)c3nc(-c4c(O)cccc4F)c(F)cc23)C(C)C1 (stereo not given) + Cc1cccc(N(C)C(=O)C2C(O)CCN2c2nc(C)cc(C(F)(F)F)c2C#N)c1", "89.8%"),
    ("O=c1[nH]cc(F)c(=O)[nH]1 + COC1C(OC(N)=O)C(O)C(Oc2ccc3c(O)c(NC(=O)c4ccc(O)c(CC=C(C)C)c4)c(=O)oc3c2C)OC1(C)C", "83.2%"),
    ("COc1cc2cc(C(=O)CCC(=O)O)sc2cc1OC + Nc1ccc(C#CCN(C(=O)Cc2ncc(C(F)(F)F)cc2C(F)(F)F)c2ccc(F)cc2)nn1", "97.2%"),
    ("Cn1ncnc1[C@H]1c2n[nH]c(=O)c3cc(F)cc(c23)N[C@@H]1c1ccc(F)cc1 + Cc1cccc(N(C)C(=O)C2C(O)CCN2c2nc(C)cc(C(F)(F)F)c2C#N)c1", "60.8%"),
    ("CCCS(=O)(=O)Nc1ccc(F)c(C(=O)c2c[nH]c3ncc(-c4ccc(Cl)cc4)cc23)c1F + Cc1cccc(N(C)C(=O)C2C(O)CCN2c2nc(C)cc(C(F)(F)F)c2C#N)c1", "102%"),
    ("C=CC(=O)N1CCN(c2nc(=O)n(-c3c(C)ccnc3C(C)C)c3nc(-c4c(O)cccc4F)c(F)cc23)C(C)C1 (stereo not given) + Nc1ccc(C#CCN(C(=O)Cc2ncc(C(F)(F)F)cc2C(F)(F)F)c2ccc(F)cc2)nn1", "91.5%"),
    ("COc1cc(C2c3cc4c(cc3C(OC3OC5COC(C)OC5C(O)C3O)C3COC(=O)C23)OCO4)cc(OC)c1O (stereo not given) + Nc1ccc(C#CCN(C(=O)Cc2ncc(C(F)(F)F)cc2C(F)(F)F)c2ccc(F)cc2)nn1", "116%"),
    ("CC[C@@]1(O)C(=O)OCc2c1cc1n(c2=O)Cc2cc3c(CN(C)C)c(O)ccc3nc2-1 + Cc1cccc(N(C)C(=O)C2C(O)CCN2c2nc(C)cc(C(F)(F)F)c2C#N)c1", "14.2%"),
    ("Nc1ccn(C2OC(CO)C(O)C2(F)F)c(=O)n1 (stereo not given) + Cc1cccc(N(C)C(=O)C2C(O)CCN2c2nc(C)cc(C(F)(F)F)c2C#N)c1", "9.7%"),
    ("CC1COCCN1c1cc(C2(S(C)(=N)=O)CC2)nc(-c2ccnc3[nH]ccc23)n1 (stereo not given) + Cc1cccc(N(C)C(=O)C2C(O)CCN2c2nc(C)cc(C(F)(F)F)c2C#N)c1", "84.7%"),
    ("COc1cc2cc(C(=O)CCC(=O)O)sc2cc1OC + Cc1cccc(N(C)C(=O)C2C(O)CCN2c2nc(C)cc(C(F)(F)F)c2C#N)c1", "100%"),
    ("COc1cc(C2c3cc4c(cc3C(OC3OC5COC(C)OC5C(O)C3O)C3COC(=O)C23)OCO4)cc(OC)c1O (stereo not given) + Cc1cccc(N(C)C(=O)C2C(O)CCN2c2nc(C)cc(C(F)(F)F)c2C#N)c1", "71.9%"),
    ("O=c1[nH]cc(F)c(=O)[nH]1 + Nc1ccc(C#CCN(C(=O)Cc2ncc(C(F)(F)F)cc2C(F)(F)F)c2ccc(F)cc2)nn1", "93%"),
    ("CC1COCCN1c1cc(C2(S(C)(=N)=O)CC2)nc(-c2ccnc3[nH]ccc23)n1 (stereo not given) + COC1C(OC(N)=O)C(O)C(Oc2ccc3c(O)c(NC(=O)c4ccc(O)c(CC=C(C)C)c4)c(=O)oc3c2C)OC1(C)C", "86.1%"),
    ("COc1ccc([C@@H](O)c2cc(-c3ncnc4cc(N5CCOCC5)ccc34)c(F)cc2Cl)nn1 + Nc1ccc(C#CCN(C(=O)Cc2ncc(C(F)(F)F)cc2C(F)(F)F)c2ccc(F)cc2)nn1", "104%"),
    ("C=CCn1c(=O)c2cnc(Nc3ccc(N4CCN(C)CC4)cc3)nc2n1-c1cccc(C(C)(C)O)n1 + COC1C(OC(N)=O)C(O)C(Oc2ccc3c(O)c(NC(=O)c4ccc(O)c(CC=C(C)C)c4)c(=O)oc3c2C)OC1(C)C", "79.7%"),
]

---

- Test system: 379773-124-R-J2-PDC spheroid viability
- ASSAY_REMARKS: Anticancer human tumor 379773-124-R-J2-PDC cell line growth inhibition [POLQ];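 also: spheroids exposed to drugs for seven days before readout; percent viability relative to DMSO vehicle control taken as 100%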
- MEASUREMENT_PARAMETERS: second compound 10 µM; first compound 0.0316 µM; active compounds read low; spheroids with HUVEC and MSC
ASSAY_READOUT: viability, T/C (%)

# COMPOUND, ASSAY_READOUT, READOUT_NUMBER
data = [
    ("CNCc1ccc(-c2[nH]c3cc(F)cc4c3c2CCNC4=O)cc1 + Nc1ccc(C#CCN(C(=O)Cc2ncc(C(F)(F)F)cc2C(F)(F)F)c2ccc(F)cc2)nn1", "viability, T/C", 102),
    ("CC1COCCN1c1cc(-c2ccnn2C)c2ccnc(-c3ccn[nH]3)c2n1 (stereo unspecified) + Cc1cccc(N(C)C(=O)C2C(O)CCN2c2nc(C)cc(C(F)(F)F)c2C#N)c1", "viability, T/C", 70.5),
    ("CC1COCCN1c1cc(C2(S(C)(=N)=O)CC2)nc(-c2ccnc3[nH]ccc23)n1 (stereo unspecified) + Cc1cccc(N(C)C(=O)C2C(O)CCN2c2nc(C)cc(C(F)(F)F)c2C#N)c1", "viability, T/C", 84.6),
    ("C=CC(=O)N1CCN(c2nc(=O)n(-c3c(C)ccnc3C(C)C)c3nc(-c4c(O)cccc4F)c(F)cc23)C(C)C1 (stereo unspecified) + COC1C(OC(N)=O)C(O)C(Oc2ccc3c(O)c(NC(=O)c4ccc(O)c(CC=C(C)C)c4)c(=O)oc3c2C)OC1(C)C", "viability, T/C", 91.1),
    ("CCc1c2c(nc3ccc(O)cc13)-c1cc3c(c(=O)n1C2)COC(=O)[C@]3(O)CC + Nc1ccc(C#CCN(C(=O)Cc2ncc(C(F)(F)F)cc2C(F)(F)F)c2ccc(F)cc2)nn1", "viability, T/C", 11.6),
    ("C=CC(=O)N1CCN(c2nc(=O)n(-c3c(C)ccnc3C(C)C)c3nc(-c4c(O)cccc4F)c(F)cc23)C(C)C1 (stereo unspecified) + Cc1cccc(N(C)C(=O)C2C(O)CCN2c2nc(C)cc(C(F)(F)F)c2C#N)c1", "viability, T/C", 78),
    ("COc1cc(C2c3cc4c(cc3C(OC3OC5COC(C)OC5C(O)C3O)C3COC(=O)C23)OCO4)cc(OC)c1O (stereo unspecified) + Nc1ccc(C#CCN(C(=O)Cc2ncc(C(F)(F)F)cc2C(F)(F)F)c2ccc(F)cc2)nn1", "viability, T/C", 98),
    ("Cn1ncnc1[C@H]1c2n[nH]c(=O)c3cc(F)cc(c23)N[C@@H]1c1ccc(F)cc1 + COC1C(OC(N)=O)C(O)C(Oc2ccc3c(O)c(NC(=O)c4ccc(O)c(CC=C(C)C)c4)c(=O)oc3c2C)OC1(C)C", "viability, T/C", 74),
    ("CCCS(=O)(=O)Nc1ccc(F)c(C(=O)c2c[nH]c3ncc(-c4ccc(Cl)cc4)cc23)c1F + Cc1cccc(N(C)C(=O)C2C(O)CCN2c2nc(C)cc(C(F)(F)F)c2C#N)c1", "viability, T/C", 89.9),
    ("C=CCn1c(=O)c2cnc(Nc3ccc(N4CCN(C)CC4)cc3)nc2n1-c1cccc(C(C)(C)O)n1 + COC1C(OC(N)=O)C(O)C(Oc2ccc3c(O)c(NC(=O)c4ccc(O)c(CC=C(C)C)c4)c(=O)oc3c2C)OC1(C)C", "viability, T/C", 103),
    ("CCc1cc2c(N3CCc4c(cc(Cn5ccnc5)cc4-c4cn(C)nc4C(F)(F)F)C3=O)ccnc2c(OC)n1 + Cc1cccc(N(C)C(=O)C2C(O)CCN2c2nc(C)cc(C(F)(F)F)c2C#N)c1", "viability, T/C", 69.6),
]
